Recorded measurements of pIC50, one per entry
Molecular target: USP28 (Homo sapiens, UniProt Q96RU2)
Sequence (Q96RU2 1-1077): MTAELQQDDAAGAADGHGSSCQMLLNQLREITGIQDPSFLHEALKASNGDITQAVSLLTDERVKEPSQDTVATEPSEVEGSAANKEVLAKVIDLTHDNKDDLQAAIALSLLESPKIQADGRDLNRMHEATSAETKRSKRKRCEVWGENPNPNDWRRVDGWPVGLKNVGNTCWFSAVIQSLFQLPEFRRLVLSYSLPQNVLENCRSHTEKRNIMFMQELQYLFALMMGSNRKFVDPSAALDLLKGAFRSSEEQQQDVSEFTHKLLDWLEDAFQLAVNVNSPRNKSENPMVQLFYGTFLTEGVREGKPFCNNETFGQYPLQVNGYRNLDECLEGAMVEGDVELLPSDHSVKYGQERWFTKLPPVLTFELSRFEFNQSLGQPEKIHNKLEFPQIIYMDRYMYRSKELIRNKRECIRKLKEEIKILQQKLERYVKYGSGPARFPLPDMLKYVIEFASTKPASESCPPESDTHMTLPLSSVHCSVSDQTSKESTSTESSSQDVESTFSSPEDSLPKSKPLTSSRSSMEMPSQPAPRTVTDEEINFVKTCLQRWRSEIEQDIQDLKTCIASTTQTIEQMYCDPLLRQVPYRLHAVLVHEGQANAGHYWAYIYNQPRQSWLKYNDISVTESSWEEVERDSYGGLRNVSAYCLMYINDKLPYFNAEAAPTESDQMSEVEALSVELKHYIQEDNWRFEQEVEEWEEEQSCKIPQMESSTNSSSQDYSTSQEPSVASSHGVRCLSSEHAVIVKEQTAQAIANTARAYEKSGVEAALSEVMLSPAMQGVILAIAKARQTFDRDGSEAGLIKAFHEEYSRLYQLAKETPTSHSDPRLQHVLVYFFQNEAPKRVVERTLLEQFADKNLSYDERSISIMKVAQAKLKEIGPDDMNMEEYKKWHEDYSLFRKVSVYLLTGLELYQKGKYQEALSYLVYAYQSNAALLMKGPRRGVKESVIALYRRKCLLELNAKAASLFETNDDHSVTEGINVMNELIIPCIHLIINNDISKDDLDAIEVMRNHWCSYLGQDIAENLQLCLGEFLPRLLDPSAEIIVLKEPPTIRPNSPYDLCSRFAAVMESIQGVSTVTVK
pIC50: −log10 of the molar value.

Input: What pIC50 value was documented for this molecule, "Cc1ccc(S(=O)(=O)N(C)C)cc1C(=O)NCc1ccc(Cl)c(Cl)c1" ?
Output: > 6.00

Input: Same question, "CN(C)S(=O)(=O)c1cccc(NC(=O)Cc2ccc(Cl)c(Cl)c2)c1" this time
Output: 4.00 to 5.00

Input: Same question, "Cc1ccc(S(=O)(=O)Nc2ccc(N3CCN(C)CC3)cc2)cc1NC(=O)Cc1ccc(Cl)c(Cl)c1" this time
Output: > 6.00

Input: Same question, "Cc1ccc(S(=O)(=O)N(C)C)cc1NC(=O)Cc1ccccc1" this time
Output: 5.00 to 6.00

Input: Same question, "Cc1ccc(S(=O)(=O)N(C)C)cc1C(=O)NCc1cccc(Cl)c1" this time
Output: > 6.00

Input: Same question, "Cc1ccc(S(=O)(=O)NCc2ccccc2)cc1NC(=O)c1ccc(Cl)c(Cl)c1" this time
Output: > 6.00

Input: Same question, "Cc1ccc(S(=O)(=O)Nc2ccccc2)cc1NC(=O)Cc1ccc(Cl)c(Cl)c1" this time
Output: > 6.00

Input: Same question, "Cc1ccc(S(=O)(=O)N(C)C)cc1NC(=O)Cc1ccc(O)cc1" this time
Output: < 4.00

Input: Same question, "Cc1ccc(S(=O)(=O)NCc2ccccc2)cc1NC(=O)Cc1ccc(Cl)c(Cl)c1" this time
Output: > 6.00

Input: Same question, "CS(=O)(=O)c1cccc(NC(=O)Cc2ccc(Cl)c(Cl)c2)c1" this time
Output: 4.00 to 5.00

Input: Same question, "Cc1ccc(S(=O)(=O)N(C)C)cc1NC(=O)Cc1ccc(Cl)c(Cl)c1" this time
Output: > 6.00

Input: Same question, "CN(C)S(=O)(=O)c1ccc(NCc2ccccc2)c(NC(=O)Cc2ccc(Cl)c(Cl)c2)c1" this time
Output: < 4.00

Input: Same question, "Cc1ccc(S(=O)(=O)N2CCCCC2)cc1NC(=O)Cc1ccc(Cl)c(Cl)c1" this time
Output: > 6.00

Input: Same question, "Cc1ccc(C(=O)NCc2ccccc2)cc1NC(=O)Cc1ccc(Cl)c(Cl)c1" this time
Output: 5.00 to 6.00
